Just for reference, patent US20220002432A1 is where these values come from.

I'd be grateful if you could share measured pKd for these entries.
- Target Entity: T1, Rhesus-ICAM1 (rhesus, UniProt Q5NKV6 28-480, limits assumed)
- T1 sequence (looked up): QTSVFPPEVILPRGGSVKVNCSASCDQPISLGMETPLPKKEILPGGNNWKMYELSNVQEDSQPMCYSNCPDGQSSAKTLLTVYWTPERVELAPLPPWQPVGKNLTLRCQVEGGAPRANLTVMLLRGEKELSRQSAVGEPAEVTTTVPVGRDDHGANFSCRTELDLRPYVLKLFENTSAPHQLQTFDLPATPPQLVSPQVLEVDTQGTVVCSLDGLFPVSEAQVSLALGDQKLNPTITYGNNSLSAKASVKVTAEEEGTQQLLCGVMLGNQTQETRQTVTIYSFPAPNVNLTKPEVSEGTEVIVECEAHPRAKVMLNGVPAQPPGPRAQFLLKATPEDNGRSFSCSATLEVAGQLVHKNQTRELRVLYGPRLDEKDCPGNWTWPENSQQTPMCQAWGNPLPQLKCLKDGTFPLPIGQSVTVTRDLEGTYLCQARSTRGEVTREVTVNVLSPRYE
- Test Protocol: SPR (Biacore 8K), antibody captured, antigen injected
Numbers only, as −log10 of the molar value.

14H1 (antibody, human IgG1, kappa, V domains shown, Rabbit-human chimeric anti-ICAM1: rabbit VH and VL on human IgG1 and kappa constant regions) VH: QSVEESGGRLVTPGTPLTLTCTVSGFSLSNYYMSWVRQAPGKGLEWIGIISDSGSTYYASWAKGRFTISKTSTTVDLSITSPTTEDTATYFCARDWSYDSTSGYYYYDMDLWGPGTLVTVSA VL: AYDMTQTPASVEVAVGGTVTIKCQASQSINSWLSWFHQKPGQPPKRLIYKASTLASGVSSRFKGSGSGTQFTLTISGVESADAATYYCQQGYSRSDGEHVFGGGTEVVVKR: 8.65

Report pKd for every entry below.
1. 2E3 (antibody, human IgG1, kappa, V domains shown, Rabbit-human chimeric anti-ICAM1: rabbit VH and VL on human IgG1 and kappa constant regions) VH: QSVEESGGGLVKPGGTLTLTCTVSGFSLSSYAMGWVRQAPGKGLEYIGIIGSSGSTYYASWAKGRFTISKTSTTVDLKITSPTTEDTATYFCVRDPYDSFGDGYRLWGPGTLVTVSS VL: AYDMTQTPASVEVAVGGTVTIKCQASENIYRYLLWYQQKLGQRPSLLIYDASKLASGVPSRFKGSGSGTEFTLTISGVQSDDAATYYCQQAYSSSNVDNAFGGGTEVVVKR
2. 3D8 (antibody, human IgG1, kappa, V domains shown, Rabbit-human chimeric anti-ICAM1: rabbit VH and VL on human IgG1 and kappa constant regions) VH: QSLEESGGDLVKPGASLTLTCTASGFSFSSSYWMCWVRQAPGKGLEWIACIDGGSAGYNYYATWAKGRFTISKTSSTTVTLQMTSLTAADRATYFCARGPGSSYNLWGPGTLVTVSS VL: DIVMTQTPASVEAAVGGTVTIKCQASQSISSYLSWYQQKPGQPPKLLIYRASTLASGVPSRFKGSGSGTEFTLTISDLESADAATYYCQSYVFGSSRSYDNAFGGGTEVVVKR
3. Anti-ICAM1 G12 (antibody, human IgG1, lambda, V domains shown, Human IgG1 with a lambda light chain; also called anti-ICAM1 clone G12) VH: QVQLQESGGGLVQPGGSLRLSCAASGFTFSSYAMSWVRQAPGKGLEWVSAISGSGGSTYYADSVKGRFTISRDNSKNTLYLQMSSLRAEDTAFYYCANSAYTGGWYDYWGHGTLVTVSS VL: ASELTQDPAVSVALGQTVKITCQGDSLRTYYASWYQQRPGQAPVLVIYGENSRPSGIPDRFSGSSSGNTASLTITGAQAEDEADYYCNSRDSSGNHLRVFGGGTKLTVLG

Output line:
[8.93, 7.76, 7.75]
